target: Adrenergic receptor alpha-2 (Homo sapiens, UniProt P08913+P18825+P18089); assay: Binding affinity towards alpha 2 adrenergic receptor; format: protein assay, Canis lupus familiaris
Measured Ki accompanies every entry in the list below.
The reply should contain only the number, in nM.

Here are 4 molecules together with their reported answers.
{"MOLECULE": "NCC1OCc2c1ccc(O)c2O (stereo not given)", "TEST READOUT": "Ki", "ASSAY VALUE": 77}
{"MOLECULE": "CNCC1CCc2c1ccc(O)c2O (stereo not given)", "TEST READOUT": "Ki", "ASSAY VALUE": 7}
{"MOLECULE": "CN(C)CC1CCc2c1ccc(O)c2O (stereo not given)", "TEST READOUT": "Ki", "ASSAY VALUE": 25}
{"MOLECULE": "CN(C)CC1OCc2c1ccc(O)c2O (stereo not given)", "TEST READOUT": "Ki", "ASSAY VALUE": 10.7}

Challenge: Give its Ki value. Item: CCCN(CCC)CC1CCc2c1ccc(O)c2O (stereo not given)
Response given: 470

Challenge: Give its Ki value. Item: CNCC1OCc2c1ccc(O)c2O (stereo not given)
Response given: 18

Challenge: Give its Ki value. Item: NCC1CCc2c1ccc(O)c2O (stereo not given)
Response given: 15

Challenge: Give its Ki value. Item: NCC1OCc2cc(O)c(O)cc21 (stereo not given)
Response given: 13000

Challenge: Give its Ki value. Item: NCC1CCc2cc(O)c(O)cc21 (stereo not given)
Response given: 520

Challenge: Give its Ki value. Item: CCCN(CCC)CC1OCc2c1ccc(O)c2O (stereo not given)
Response given: 670
